// provenance: patent US11510990B2

test: Pharmacokinetic measurement in C57BL/6 mice, single subcutaneous dose, plasma ELISA; format: in vivo; conditions: single subcutaneous dose 30 nmol/kg, plasma
Known AUClast of a selection of molecules
Only the number, expressed in nmol·h/L, is required.

Example cases with answers are listed next.
- molecule: "Compound 4: GLP-1/FGF21 fusion polypeptide SEQ ID NO: 4 conjugated with Moiety A at 51K and 231K (conjugate, Moiety A conjugated at K51 and K231) HGEGTFTSDVSSYLEEQAAREFIAWLVRGGGGGGGSGGGGSGGGGSGGGGKHPIPDSSPLLQFGGQVRQRYLYTDDAQQTEAHLEIREDGTVGGAADQSPESLLQLRALRPGVIQILGVRTSRFLCQRPDGALYGSLHFDPEACSFRELLLEDGYNVYQSEAHGLPLHLPGQRSPHRDPAPRGPARFLPLPGLPPALPEPPGILAPQPPDVGSSDPLSLVGGSQGRSPSYKS"
  metric: "AUClast"
  numericValue: 1019.6
- molecule: "Compound 19: GLP-1/FGF21 fusion polypeptide SEQ ID NO: 19 conjugated with Moiety A at 51K and 222K (conjugate, Moiety A conjugated at K51 and K222) HGEGTFTSDVSSYLEEQAAREFIAWLVRGGGGGGGSGGGGSGGGGSGGGGKHPIPDSSPLLQFGGQVRQRYLYTDDAQQTEAHLEIREDGTVGGAADQSPESLLQLRALRPGVIQILGVRTSRFLCQRPDGALYGSLHFDPEACSFRELLLEDGYNVYQSEAHGLPLHLPGQRSPHRDPAPRGPARFLPLPGLPPALPEPPGILAPQPPDVGSSDPLSLVGKSQGRSPSYES"
  metric: "AUClast"
  numericValue: 1018

Annotate the molecule Compound 10: GLP-1/FGF21 fusion polypeptide SEQ ID NO: 10 conjugated with Moiety A at 222K (conjugate, Moiety A conjugated at K222) HGEGTFTSDVSSYLEEQAAREFIAWLVRGGGGGGGSGGGGSGGGGSGGGGSHPIPDSSPLLQFGGQVRQRYLYTDDAQQTEAHLEIREDGTVGGAADQSPESLLQLRALRPGVIQILGVRTSRFLCQRPDGALYGSLHFDPEACSFRELLLEDGYNVYQSEAHGLPLHLPGQRSPHRDPAPRGPARFLPLPGLPPALPEPPGILAPQPPDVGSSDPLSLVGKSQGRSPSYES with its measured AUClast.
465.1
